# assayed_system: T1, 6xHis-tagged huPD-L1 (human, UniProt Q9NZQ7 19-238)
# T1 construct: also called human PD-L1 (RD Systems 9049-B7); extracellular domain of human PD-L1 fused to a His tag; not shown: 6xHis tag
# T1 sequence (Q9NZQ7 19-238): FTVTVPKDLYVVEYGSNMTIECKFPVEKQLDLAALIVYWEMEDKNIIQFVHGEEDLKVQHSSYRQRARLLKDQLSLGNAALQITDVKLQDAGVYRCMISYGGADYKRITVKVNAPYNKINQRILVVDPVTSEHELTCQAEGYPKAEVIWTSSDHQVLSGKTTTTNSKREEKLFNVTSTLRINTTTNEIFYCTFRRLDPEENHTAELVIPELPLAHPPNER
# experiment_notes: ELISA, plate-coated 6xHis huPD-L1, A450
Measured Absolute IC50 of individual entries
Please respond with the number in µg/mL and leave the unit unwritten.

binder	Absolute IC50 [µg/mL]
3B1 (antibody, V domains shown) VH: QIQLVQSGPELKKPGETVKISCKASGYDFTNYGMNWVKQAPGKGLKWMGYINTYTGEPAYADDFKGRFAFSLETSARTAYLRINNLKNEDTATYFCATRAYYGHYLAYWGQGTLVTVSA VL: DVLMTQTPLSLPVSLGDQASISCRSSQRIVHSNGNTYLEWYLQKPGQSPKLLIYKVSNRFSGVPDRFSGSGSGTDFTLKISRVEAEDLGVYYCFQGSHVPYTFGGGTKLEIK	0.0498

Turning now to a further binder:
**Q:** Give recorded Absolute IC50. 2M5 (antibody, V domains shown) VH: EVQLVESGGGLVKPGGSLRVSCAASGFTLSSYSMNWVRQAPGKGLEWVSSISSSSSYIYYADSVKGRFTISRDNAKNLLYLQMNSLRAEDTAVYYCAREGGAARPSWFDPWGQGTLVTVSS VL: QAVVTQESALTTSPGETVTLTCRSSTGAVTTSNYANWVQEKPDHLFTGLIGGTNNRAPGVPARFSGSLIGDKAALTITGAQTEDEAIYFCALWYRNHWVFGGGTKLTVL
**A:** 0.788

Taken from patent US20250145716A1.
